- study.system: human AR (androgen receptor) (Homo sapiens, UniProt P10275)
- Construct: expressed in transfected cells; host or cells: 293 cells (293-AR lysate)
- Sequence (P10275 whole entry): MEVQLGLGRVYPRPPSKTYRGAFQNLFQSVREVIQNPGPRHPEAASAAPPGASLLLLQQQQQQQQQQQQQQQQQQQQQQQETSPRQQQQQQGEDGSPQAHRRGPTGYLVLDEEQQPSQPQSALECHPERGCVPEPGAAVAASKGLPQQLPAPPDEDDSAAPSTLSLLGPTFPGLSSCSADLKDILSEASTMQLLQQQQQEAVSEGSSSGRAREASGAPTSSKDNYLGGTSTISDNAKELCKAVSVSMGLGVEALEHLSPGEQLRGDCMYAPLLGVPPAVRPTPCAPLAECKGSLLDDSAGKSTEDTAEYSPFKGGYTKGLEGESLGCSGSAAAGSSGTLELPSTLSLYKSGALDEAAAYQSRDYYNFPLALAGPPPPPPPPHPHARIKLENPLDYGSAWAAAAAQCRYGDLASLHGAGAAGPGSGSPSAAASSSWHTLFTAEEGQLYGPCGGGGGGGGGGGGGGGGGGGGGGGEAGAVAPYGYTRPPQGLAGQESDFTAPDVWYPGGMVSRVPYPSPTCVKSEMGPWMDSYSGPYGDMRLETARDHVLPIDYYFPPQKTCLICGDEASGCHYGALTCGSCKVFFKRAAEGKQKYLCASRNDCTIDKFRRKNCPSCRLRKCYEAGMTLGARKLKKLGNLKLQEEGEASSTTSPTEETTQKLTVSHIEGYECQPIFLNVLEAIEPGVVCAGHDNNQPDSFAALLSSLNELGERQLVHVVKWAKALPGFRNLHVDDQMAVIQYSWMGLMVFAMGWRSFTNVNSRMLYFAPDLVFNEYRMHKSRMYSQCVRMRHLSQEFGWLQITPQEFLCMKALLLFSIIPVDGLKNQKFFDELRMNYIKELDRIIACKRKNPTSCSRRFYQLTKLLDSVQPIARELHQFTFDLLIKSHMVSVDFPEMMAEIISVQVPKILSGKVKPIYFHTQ
- protocol: Steroid hormone nuclear receptor binding assay, AR binding
As shown below, each of these molecules has a reported Ki value.
assay.endpoint: Ki (nM)

CC(=O)c1ccc2c(c1)c1c(n2Cc2cccc(F)c2)CC[C@@H](NC(=O)C(C)C)C1 [Example 191] = 3.3
Cc1ccc2c(c1)c1c(n2Cc2ccccc2)CCC(NC(=O)C(C)C)C1 (stereo not shown) [Example 42] = 63.6
Cc1cc(-c2ccc3c(c2)c2c(n3Cc3cccc(F)c3)CC[C@@H](NC(=O)C3CC3)C2)no1 [Example 204] = 6.8
CC(C)C(=O)NC1CCc2c(c3cc(S(C)(=O)=O)ccc3n2Cc2cccc(F)c2)C1 (stereo not shown) [Example 53] = 21.6
CO/N=C/c1ccc2c(c1)c1c(n2Cc2ccccn2)CC[C@@H](NC(=O)C2CC2)C1 [Example 208] = 21.1
COc1ccc(Cn2c3c(c4cc(F)ccc42)CC(NC(=O)C(C)C)CC3)cc1 (stereo not shown) [Example 15] = 275
CC(C)C(=O)NC1CCc2c(c3cc(OC(F)(F)F)ccc3n2Cc2cccc(F)n2)C1 (stereo not shown) [Example 162] = 8.6
Cc1cccc(Cn2c3c(c4cc(Cl)ccc42)CC(NC(=O)C(C)C)CC3)c1 (stereo not shown) [Example 82] = 6.1
CC(C)C(=O)NC1CCc2c(c3cc(Br)ccc3n2Cc2cccc(F)c2)C1 (stereo not shown) [Example 35] = 2.6
CC(C)C(=O)NC1CCc2c(c3cc(C#N)c(F)cc3n2Cc2cccc(F)c2)C1 (stereo not shown) [Example 115] = 3.2
CC(C)C(=O)NC1CCc2c(c3cc(C#N)ccc3n2Cc2ccccc2)C1 (stereo not shown) [Example 85] = 4.6
Cc1nc(Cn2c3c(c4cc(C#N)ccc42)C[C@H](NC(=O)C(C)C)CC3)cs1 [Example 151] = 12.4
CC(C)C(=O)N[C@H]1CCc2c(c3cc(C#N)ccc3n2Cc2ccccc2N)C1 (single isomer, unassigned) [Example 111] = 127
N#Cc1ccc2c(c1)c1c(n2Cc2ccccn2)CC[C@@H](NC(=O)C2CC2)C1 [Example 196] = 16.1
CC(C)C(=O)NC1CCc2c(c3cc(C=O)ccc3n2Cc2cccc(F)c2)C1 (stereo not shown) [Example 197] = 4.2
CC(C)C(=O)NC1CCc2c(c3cc(Br)ccc3n2Cc2ccc(F)cc2)C1 (stereo not shown) [Example 39] = 5.3
COC(=O)N[C@@H]1CCc2c(c3cc(C#N)ccc3n2Cc2cccc(F)n2)C1 [Example 186] = 7.1
Cc1cccc2c3c(n(Cc4cccc(F)c4)c12)CCC(NC(=O)C(C)C)C3 (stereo not shown) [Example 60] = 35.9
CC(C)C(=O)NC1CCc2c(c3cc(Cl)ccc3n2Cc2ccccc2Cl)C1 (stereo not shown) [Example 18] = 10.5
CC(C)C(=O)NC1CCc2c(c3c(F)c(C#N)ccc3n2Cc2cccc(F)c2)C1 (stereo not shown) [Example 116] = 3.4
Cc1ccc2c(c1)c1c(n2Cc2ccccc2C#N)CCC(NC(=O)C(C)C)C1 (stereo not shown) [Example 46] = 137
CC(C)C(=O)NC1CCc2c(c3cc(C#N)ccc3n2Cc2ccccc2[N+](=O)[O-])C1 (stereo not shown) [Example 108] = 57.3
COc1ccccc1Cn1c2c(c3cc(F)ccc31)CC(NC(=O)C(C)C)CC2 (stereo not shown) [Example 6] = 156
COc1ccccc1Cn1c2c(c3cc(C#N)ccc31)CC(NC(=O)C(C)C)CC2 (stereo not shown) [Example 105] = 7.7
CC(C)C(=O)NC1CCc2c(c3cc(C#N)ccc3n2Cc2cscn2)C1 (stereo not shown) [Example 147] = 29.2
CC(C)C(=O)NC1CCc2c(c3cc(O)ccc3n2Cc2cccc(F)c2)C1 (stereo not shown) [Example 91] = 11.8
CC(C)C(=O)NC1CCc2c(c3cc(C#N)ccc3n2Cc2cncs2)C1 (stereo not shown) [Example 159] = 34.4
CC(C)Oc1ccc2c(c1)c1c(n2Cc2cccc(F)c2)CCC(NC(=O)C(C)C)C1 (stereo not shown) [Example 94] = 38.3
CC(C)C(=O)NC1CCc2c(c3cc(-c4nccs4)ccc3n2Cc2cccc(F)c2)C1 (stereo not shown) [Example 130] = 13.6
CC(C)C(=O)NC1CCc2c(c3cc(C#N)ccc3n2Cc2ccccc2NS(C)(=O)=O)C1 (stereo not shown) [Example 113] = 21.4
CC(C)C(=O)N[C@@H]1CCc2c(c3cc(C=O)ccc3n2Cc2cccc(F)c2)C1 [Example 200] = 2.8
CO/N=C/c1ccc2c(c1)c1c(n2Cc2csc(C)n2)CC[C@@H](NC(=O)C(C)C)C1 [Example 212] = 16.7
COc1ccc2c(c1)c1c(n2Cc2ccccc2)CCC(NC(=O)C2CC2)C1 (stereo not shown) [Example 68] = 46.2
CC(C)C(=O)NC1CCc2c(c3cccc(Cl)c3n2Cc2cccc(F)c2)C1 (stereo not shown) [Example 57] = 25.1

Just for reference, patent US7935722B2 is where these values come from.
